- measurement-target: human full-length CD33 (CD33^FL) (UniProt P20138 18-364)
- Sequence (P20138 18-364): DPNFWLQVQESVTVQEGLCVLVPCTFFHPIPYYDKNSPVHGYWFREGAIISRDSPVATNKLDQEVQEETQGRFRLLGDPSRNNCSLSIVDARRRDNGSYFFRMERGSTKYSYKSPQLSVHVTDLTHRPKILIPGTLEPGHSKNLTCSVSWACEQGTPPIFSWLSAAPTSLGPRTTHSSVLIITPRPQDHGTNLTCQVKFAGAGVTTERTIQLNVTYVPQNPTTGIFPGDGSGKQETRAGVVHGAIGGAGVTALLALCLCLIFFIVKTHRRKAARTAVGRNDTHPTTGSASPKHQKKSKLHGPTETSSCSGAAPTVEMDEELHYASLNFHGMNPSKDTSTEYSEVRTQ
- test-description: SPR (Carterra); 1 µg/mL
Listed here are binders together with their documented Kd.
Report as a plain number; the unit nM is understood.

Requested field: Kd. Item: 1H10 antibody (human CD33^PAN antibody clone, hybridoma-derived) (antibody, V domains shown) VH: QVQLVQSGAEVKKPGASVKVSCKGSGYIFTSYDMHWVRQAPGQGLEWMGIIDPSGGSTSYAQKFQGRVTMTRDTSMSTVYMELSSLRSEDTAVYYCTRDYSWSYFDYWGQGTLVTVSS VL: AIQMTQSPSSLSASVGDRVTITCRASQGIRIYLGWYQQKPGKAPKLLIYATSSLQSGVPSRFSGSGSGTDFTLTISSLQPEDFATYYCLQDYNYPWTFGQGTKVEIK
13

I would be grateful if you could share the reported Kd for 2D3 antibody (human CD33V-set antibody clone, hybridoma-derived) (antibody, V domains shown) VH: EVQLLESGGGLVQPGGSLSLSCAASGFTFSIYAMSWVRQAPGKGLEWVSAISDSGGTTYYADSVKGRFTISRDNSKNMLYLEMNSLRAEDTAIYYCAKRTRYFNGMDVWGQGTTVTVSS VL: EIVMTQSPATLSLSPGERATLSCRASQSGSSSFLSWYQQKPGQAPRLLIYGASTRATGIPARFSGSGSGTDFTLTISSLQPEDFAVYYCQQDYNLPFTFGPGTKVDIK .
18

Which Kd reading was recorded for the binder 1H8 antibody (human CD33V-set antibody clone, hybridoma-derived) (antibody, V domains shown) VH: QVQLVESGGGVVQPGGSLRLSCAASGFTFGSYGMHWVRQAPGKGLEWVAVIWYDGSNEYYADSVKGRFTVSRDNSKHTLYLQMNRLRAEDTAVYYCARDLDYDSSGGDYWGQGILVLVSS VL: EIVLTQSPDFQSVTPKEKVTITCRASQNIGGNLHWYQQKPDQSPKLLIRYATQPFSGVPSRFGGSGSGTDFTLTINSLEAEDAATYYCHQSSSLPLTFGGGTKVEIK ?
24

More entries:
Quick one: Kd for 1A9 antibody (human CD33^PAN antibody clone, hybridoma-derived) (antibody, V domains shown) VH: EVQLVESGGGLVQPGGSLRLSCAASGFTFSIYDMHWVRQATGKGLEWVSAIGTAGDTYYAGSVKGRFTISRENAKNSLYLQMNSLRAGDTAVYYCAREYSGYYFDYWGQGTLVTVSS VL: AIQMTQSPSSLSASVGDRVTITCRASQDIRNDLGWYQQKPGKAPKILIYGASSLQSGVPSRFSGSGSGTDFTFTISSLQPEDFATYYCLQEYNYPCTFGQGTKLEIK ?
36
